Values compiled from ChEMBL document CHEMBL5303304.

System: Fibroblast
Assay notes: Incucyte cell viability with human fibroblast; further: unitless GR value; below 1 slowed growth and below 0 cell loss
Format: toxicity, cell-based
Experimental parameters: 6 h, 10 µM, compound concentration 10 uM, replicate number 1
Outcome measure: Growth Rate

[Q] // query Growth Rate value for entry O=C(O)CCC/C=C\C[C@@H]1[C@@H](/C=C/[C@@H](O)COc2cccc(C(F)(F)F)c2)[C@H](O)C[C@@H]1O
[A] 0.15

[Q] // query Growth Rate value for entry CCN1C(=O)/C(=C(\NC2CCN(C)CC2)c2ccc3c(c2)OCO3)c2cc(C(C)=O)ccc21
[A] 0.42

[Q] // query Growth Rate value for entry Cc1cc(O)c(-c2ccc([C@@H](C)CN(C)C)cc2)c2c1[nH]c(=O)c1sccc12
[A] -1

[Q] // query Growth Rate value for entry CN(C)CCCN1c2ccccc2Sc2ccc(Cl)cc21.Cl [CHLORPROMAZINE HYDROCHLORIDE]
[A] -0.57

[Q] // query Growth Rate value for entry CC1(C)C(=O)N([C@H]2CCc3c(O)cccc32)c2nc(Nc3cccc(CN4CCCC4)c3)ncc21
[A] -0.49

[Q] // query Growth Rate value for entry C=CC(=O)Nc1cccc(C(=O)Nc2ccc(NC(=O)c3cccc(-c4ccn[nH]4)n3)cc2)c1
[A] -0.7

[Q] // query Growth Rate value for entry CC(C)(C)OC(=O)CN1C(=O)c2c(OCC(=O)O)cccc2Oc2ccc(C(F)(F)F)cc21
[A] 0.95

[Q] // query Growth Rate value for entry CC(C)(O)CNC(=O)N1C(=O)N(c2cccc(C(F)(F)F)c2)C2=C(C(=O)CC2)[C@@H]1c1ccc(C#N)cc1
[A] 0.57

====

Test system: U2OS
Assay notes: Incucyte cell viability with U2OS; further: unitless GR value; below 1 slowed growth and below 0 cell loss
Type: toxicity, cell-based
Experimental parameters: human, 0 h, 10 µM, compound concentration 10 uM, replicate number 1
Outcome measure: Growth Rate
// response body must contain only the number

[Q] // query Growth Rate value for entry c1ccc2nc(N3CCNCC3)ccc2c1
[A] -0.85

[Q] // query Growth Rate value for entry COc1cc(Cl)c(C(=O)N[C@@H](CN[C@H]2CC[C@@H](N)CC2)Cc2ccc(C#N)cc2)cc1-c1ccc(CN[C@H](C)c2ccc(C)cc2)o1
[A] -1

[Q] // query Growth Rate value for entry O=C([O-])c1cc2cc(Cc3cccnc3)ccc2o1.[Na+]
[A] -0.13

[Q] // query Growth Rate value for entry C[C@@H](CN1CCC(Cc2ccccc2)CC1)[C@@H](O)c1ccc(O)cc1
[A] -0.54

[Q] // query Growth Rate value for entry C=CC(=O)Nc1cccc(C)c1Nc1ncc2cc(-c3c(Cl)c(OC)cc(OC)c3Cl)ccc2n1
[A] -0.45

[Q] // query Growth Rate value for entry CCCCCN1C(=O)C2(COc3cc4c(cc32)OCO4)c2ccccc21 (stereo not given)
[A] -0.63

[Q] // query Growth Rate value for entry CC(C)NC(=O)[C@H]1CCC[C@H]1Nc1nc(Nc2ccc(C(=O)N(C)C3CCN(C)CC3)cc2)ncc1Cl
[A] 0.59

[Q] // query Growth Rate value for entry O=C(CNC(=O)c1ccc(-c2ccccc2)cc1)NC1CCCc2ccccc21 (stereo not given)
[A] 0.77

[Q] // query Growth Rate value for entry CNC(=O)c1c[nH]c2ccc(Nc3nccc(-c4ccccn4)n3)cc12
[A] 0.13

[Q] // query Growth Rate value for entry CC(C)(C)NC(=O)c1cncn1C1CCN(c2ccc(-c3nnc(C(F)(F)F)o3)cn2)CC1
[A] -0.02
